A collection of variants and their measured abundance fitness
B1: Ankyrin-3, residues 4094 to 4171; numbered along this chain, Q12955 (parent)
chain: MAIVADHLGLSWTELARELNFSVDEINQIRVENPNSLISQSFMLLKKWVTRDGKNATTDALTSVLTKINRIDIVTLLE

# Variants of: B1
# measurement_description: abundance fitness (aPCA) (normalised: wild type 0, dead -1); higher = more abundant; growth selection in yeast, the domain comes from the species named
# settings: Homo sapiens
quantity: abundance fitness

INSERT INTO measurements (variant_id, result) VALUES
  ('T13K', -0.554),
  ('I71L', 0.081),
  ('A16G', -0.257),
  ('I26E', -0.848),
  ('G53Y', -0.962),
  ('V23A', -0.12),
  ('R51M', -0.682),
  ('V64M', 0.064),
  ('V23W', -0.049),
  ('Q40I', -0.663),
  ('W48V', -0.887),
  ('L8G', -0.983),
  ('S36V', -0.952),
  ('T13D', -0.35),
  ('H7A', -0.11),
  ('Q28I', -0.479),
  ('N35K', -0.329),
  ('A2E', 0.224),
  ('L77W', -0.518),
  ('V31G', -0.089),
  ('W12T', -1.1),
  ('S63W', -0.405);
